Each entry below carries its recorded Temperature.
# Test system: Rattus norvegicus
# assay: Change in body temperature of rats upon administration after 30 minutes (p<0.01)
# Type: functional
Number only, no unit.

{"chemicalString": "CCCN(CCC)[C@@H]1CCc2cccc(C)c2C1", "testSystem": "Rattus norvegicus", "number": -2.1}
{"chemicalString": "CCCN(CCC)[C@@H]1CCc2cccc(-c3ccccc3)c2C1", "testSystem": "Rattus norvegicus", "number": 0.3}
{"chemicalString": "CCCN(CCC)[C@H]1CCc2cccc(O)c2C1", "testSystem": "Rattus norvegicus", "number": -2}

What value of measured Temperature is listed for "CCCN(CCC)[C@@H]1CCc2cccc(O)c2C1" ?
-2.6

* * *

# testSystem: Dopamine receptor (Rattus norvegicus) (UniProt P25115+P19020+P30729+P18901+P61169)
# assay: Effect of accumulation of DOPA in rat striatum at the dose of 32 umol/kg
# Format: functional, tissue-based
endpoint: Accumulation
No unit in the answer, please; the number alone is enough.

// known answers, use as guide
{"chemicalString": "CCCN(CCC)[C@@H]1CCc2cccc(C)c2C1", "Accumulation": 86}
{"chemicalString": "CCCN(CCC)[C@@H]1CCc2cccc(C(=O)c3ccccc3)c2C1", "Accumulation": 69}

// next entry
For the compound "CCCN(CCC)[C@@H]1CCc2cccc(CO)c2C1" , what Accumulation is on record?
125

* * *

# Test system: Rattus norvegicus
# assay: Change in body temperature of rats upon administration after 30 minutes (p<0.01)
# Type: functional
Binary call on Temperature: satisfied from -2 upward, not satisfied beneath that.

Illustrative cases are given below, each with its answer.
{"chemicalString": "CCCN(CCC)[C@@H]1CCc2ccccc2C1", "categoryLabel": "satisfied"}
{"chemicalString": "C#Cc1cccc2c1C[C@H](N(CCC)CCC)CC2", "categoryLabel": "satisfied"}
{"chemicalString": "CCCN(CCC)[C@H]1CCc2cccc(C)c2C1", "categoryLabel": "not satisfied"}
{"chemicalString": "C#Cc1cccc2c1C[C@@H](N(CCC)CCC)CC2", "categoryLabel": "not satisfied"}
{"chemicalString": "CCCN(CCC)[C@H]1CCc2ccccc2C1", "categoryLabel": "satisfied"}

Switching to the query record.
Check if Temperature >= -2 (inclusive). Item: "CCCN(CCC)[C@@H]1CCc2cccc(OC)c2C1"
satisfied

* * *

// reported Turnover per item
# testSystem: 5-hydroxytryptamine receptor 1A (Rattus norvegicus)
# assay: 5-HT (serotonin) turnover in rat hippocampus (p<0.01)
# Format: functional, tissue-based
# output: bare number, no unit

{"chemicalString": "C#Cc1cccc2c1C[C@H](N(CCC)CCC)CC2", "number": 73}
{"chemicalString": "CCCN(CCC)[C@@H]1CCc2cccc(O)c2C1", "number": 66}
{"chemicalString": "CCCN(CCC)[C@@H]1CCc2cccc(OC)c2C1", "number": 66}
{"chemicalString": "C#Cc1cccc2c1C[C@@H](N(CCC)CCC)CC2", "number": 66}

Please examine the following record next.
Turnover lookup needed for "CCCN(CCC)[C@@H]1CCc2ccccc2C1" , thanks.
51

* * *

# testSystem: 5-hydroxytryptamine receptor 1A (Rattus norvegicus) (UniProt P19327)
# Sequence (P19327 whole entry): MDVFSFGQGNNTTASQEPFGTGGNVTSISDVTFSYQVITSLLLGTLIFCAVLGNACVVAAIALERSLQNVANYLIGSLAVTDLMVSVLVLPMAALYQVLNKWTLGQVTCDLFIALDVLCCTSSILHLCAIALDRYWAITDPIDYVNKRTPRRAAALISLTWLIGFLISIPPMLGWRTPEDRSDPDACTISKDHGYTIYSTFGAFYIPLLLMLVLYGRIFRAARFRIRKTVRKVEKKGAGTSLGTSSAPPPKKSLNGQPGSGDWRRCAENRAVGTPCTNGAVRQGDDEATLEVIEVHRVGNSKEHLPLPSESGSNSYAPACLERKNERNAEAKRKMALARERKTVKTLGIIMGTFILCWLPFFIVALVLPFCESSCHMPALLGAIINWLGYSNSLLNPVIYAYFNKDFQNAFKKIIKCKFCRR
# assay: 5-HT (serotonin) turnover in rat hippocampus
# Format: functional, tissue-based
Could you mark each record 1 if its Turnover falls strictly under 100, and 0 if it equals or exceeds it?

Known results for molecules:
{"chemicalString": "CCCN(CCC)[C@H]1CCc2cccc(C(C)=O)c2C1", "categoryLabel": 1}
{"chemicalString": "CCCN(CCC)[C@@H]1CCc2cccc(C(=O)OC)c2C1", "categoryLabel": 1}
{"chemicalString": "CCCN(CCC)[C@@H]1CCc2cccc(C(C)=O)c2C1", "categoryLabel": 1}
{"chemicalString": "CCCN(CCC)[C@H]1CCc2cccc(OS(=O)(=O)C(F)(F)F)c2C1", "categoryLabel": 1}
{"chemicalString": "CCCN(CCC)[C@H]1CCc2ccccc2C1", "categoryLabel": 0}
{"chemicalString": "CCCN(CCC)[C@@H]1CCc2cccc(C(=O)c3ccccc3)c2C1", "categoryLabel": 1}
{"chemicalString": "CCCN(CCC)[C@H]1CCc2cccc(C(=O)OC)c2C1", "categoryLabel": 1}
{"chemicalString": "CCCN(CCC)[C@H]1CCc2cccc(C)c2C1", "categoryLabel": 1}

Take the molecule "CCCN(CCC)[C@@H]1CCc2cccc(OS(=O)(=O)C(F)(F)F)c2C1" and say whether its Turnover is less than 100.
0

Turnover strictly < 100 for this molecule? "CCCN(CCC)[C@H]1CCc2cccc(C(=O)c3ccccc3)c2C1"
0
